Here the recorded Percent inhibition of Factor 11 mRNA at 1,500 nM is given for each entry.
tested on: human Factor 11 mRNA; test: Dose-dependent inhibition of human Factor 11 in HepG2 cells, electroporation 375-12,000 nM (Example 32); format: cell-based; conditions: electroporation, 1,500 nM, approx. 16 hours, relative to untreated control cells
Strand notation (5' to 3'): a small letter for the sugar, then the base; units joined by * are phosphorothioate-linked, units joined directly phosphodiester-linked; [ ] holds rarer units or linkages, { } end groups; capitals alone tell only the bases. e = 2'-O-(2-methoxyethyl) (MOE); [5mC] = 5-methylcytosine; d = 2'-deoxy (DNA)
Just the number please, in %, no unit attached.

# example entries with known answers
substance | value measured
445531 (antisense eG*eG*e[5mC]*eA*eT*dT*dG*dG*dT*dG*d[5mC]*dA*d[5mC]*eA*eG*eT*eT*eT) [compound 445531] | 78
416858 (antisense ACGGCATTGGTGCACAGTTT; 5-10-5 gapmer, further chemistry not given here) [compound 416858] | 78

Could you now look at the following substance, please?
Enquiry: Test system human Factor 11 mRNA; read-out Percent inhibition of Factor 11 mRNA at 1,500 nM; what value for 449709 (antisense eG*e[5mC]*eA*e[5mC]*dA*dG*dT*dT*dT*d[5mC]*dT*dG*dG*d[5mC]*eA*eG*eG*e[5mC]) [compound 449709] ?
Return: 80

====

assay: Hematology assays in cynomolgus monkeys (Example 45); type: in vivo; conditions: day 57
# label = met if eosinophils >= 0.3% else not met

substance | category
ISIS 416838: MOE gapmer, nucleobases 1018 to 1042 of SEQ ID NO: 1 (Table 6) (antisense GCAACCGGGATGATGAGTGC; MOE gapmer, wing and gap sizes not given here) | met
ISIS 417002: MOE gapmer, nucleobases 1275 to 1318 of SEQ ID NO: 1 (Table 8) (antisense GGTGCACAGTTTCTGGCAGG; MOE gapmer, wing and gap sizes not given here) | not met
ISIS 416864: MOE gapmer, nucleobases 1275 to 1318 of SEQ ID NO: 1 (Table 8) (antisense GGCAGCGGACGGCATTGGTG; MOE gapmer, wing and gap sizes not given here) | met

Enquiry: Hi team, for ISIS 416850: MOE gapmer, nucleobases 1275 to 1318 of SEQ ID NO: 1 (Table 8) (antisense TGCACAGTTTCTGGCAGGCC; MOE gapmer, wing and gap sizes not given here) , is the recorded eosinophils at or above 0.3%?
Return: met

====

assay: Hematology assays in cynomolgus monkeys (Example 45); type: in vivo; settings: day 29; escalating dose regimen
endpoint: hematocrit
Please answer using the number first and the unit second.

# example entries with known answers
substance | hematocrit
ISIS 416850: MOE gapmer, nucleobases 1275 to 1318 of SEQ ID NO: 1 (Table 8) (antisense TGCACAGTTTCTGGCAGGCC; MOE gapmer, wing and gap sizes not given here) | 41%
ISIS 416858: MOE gapmer, nucleobases 1275 to 1318 of SEQ ID NO: 1 (Table 8) (antisense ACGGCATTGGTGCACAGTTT; MOE gapmer, wing and gap sizes not given here) | 41%
ISIS 416864: MOE gapmer, nucleobases 1275 to 1318 of SEQ ID NO: 1 (Table 8) (antisense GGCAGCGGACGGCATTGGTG; MOE gapmer, wing and gap sizes not given here) | 43%
ISIS 416838: MOE gapmer, nucleobases 1018 to 1042 of SEQ ID NO: 1 (Table 6) (antisense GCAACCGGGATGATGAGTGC; MOE gapmer, wing and gap sizes not given here) | 43%

Could you now look at the following substance, please?
Enquiry: # query: hematocrit of entry ISIS 417002: MOE gapmer, nucleobases 1275 to 1318 of SEQ ID NO: 1 (Table 8) (antisense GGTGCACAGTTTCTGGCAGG; MOE gapmer, wing and gap sizes not given here)
Return: 42%
